# Assay comment: Cell Viability - LYMP1-002 - Assay at 16 hr (AID 948)
# Test parameters: LYMP1-002 lymphoblastoid cell viability; series mostly up to 92.2 µM
# From the text: NIH Chemical Genomics Center [NCGC] NIH Molecular Libraries Screening Centers Network [MLSCN] National Institutes of Environmental Health Sciences [NIEHS] National Toxicology Program [NTP] We have developed a 1536-well cell-based assay for quantitative high throughput screening (qHTS) against a number of cell lines to determine in vitro cytotoxicity of small molecules. […] 8. Detection; Luminescence; Viewlux plate reader […]
Inconclusive results are not listed. Activity calls are given as the source filed them. The call rests on the fitted dose curve; in most records, active means well fitted cell-killing curve with a large enough effect; inconclusive means small, poorly fitted or top-dose-only effect; inactive means flat fitted curve, though single readings scatter.
Your answer must be one of the following: True (active), False (inactive)

Reference set, count: 3
{"Molecule": "CC(=O)[O][Hg][c]1ccccc1", "Class name": "True"}
{"Molecule": "CCOP(=O)(NC(C)C)Oc1ccc(SC)c(C)c1 (centres undefined)", "Class name": "False"}
{"Molecule": "CCCCOC(=O)c1ccccc1C(=O)OCc1ccccc1", "Class name": "False"}

Continue with the next molecule.
Outcome? CN(C)NC(=O)CCC(=O)O
False

----------
# System: MCC-26
# Assay comment: qHTS assay to identify novel small-molecules to repurpose for Merkel cell carcinoma treatment (AID 1296009); further: nearly all actives have a fitted effect of over 60% in size
# Test parameters: MCC and control cell lines, CellTiter-Glo viability, 72 h; series mostly up to 46 µM
Results filed as inconclusive are left out. Active and inactive are the calls of the source. Calls follow the shape of the dose curve; as a rule, active = well fitted inhibition curve with a large enough effect; inconclusive = small, poorly fitted or top-dose-only effect; inactive = flat fitted curve, though single readings scatter.
Tick one outcome: 1 for active, 0 for inactive

Use these answered entries as a reference point.
{"Compound": "Oc1ccc2c3c1O[C@H]1c4[nH]c5c(c4C[C@@]4(O)[C@@H](C2)N(CC2CC2)CC[C@]314)C[C@@]1(O)[C@H]2Cc3ccc(O)c4c3[C@@]1(CCN2CC1CC1)[C@H]5O4", "Class name": 0}
{"Compound": "CC=C(C)C(=O)O[C@H]1C(C)=C2[C@@H]3OC(=O)[C@@](C)(O)[C@@]3(O)[C@@H](OC(=O)CCC)C[C@](C)(OC(C)=O)[C@@H]2[C@@H]1OC(=O)CCCCCCC", "Class name": 1}

For the next question, use this compound.
Could you check what this test reported for CCCCC(CC)COC(=O)c1ccccc1C(=O)OCC(CC)CCCC (stereo not drawn) ?
0

----------
# Assayed system: Calcium and integrin-binding protein 1 (Homo sapiens)
# Assay comment: Primary qHTS for Identification of Calcium Integrin Binding Protein 1 (CIB1) Competitor (AID 1508620);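 further: GST tagged CIB1 binding a fluorescein labelled alphaIIb integrin peptide tracer; top concentration of the series differs between compounds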
# Test parameters: CIB1-GST / FITC-alphaIIb peptide fluorescence polarization; series mostly up to 57.7 µM
Results filed as inconclusive are left out. The source made the active and inactive calls. Calls follow the shape of the dose curve; as a rule, active = well fitted inhibition curve with a large enough effect; inconclusive = small, poorly fitted or top-dose-only effect; inactive = flat fitted curve, though single readings scatter.
Recorded metric: outcome

Take a look at these entries with their results.
{"Compound": "C[C@]12CC[C@@H]3[C@@H](CCC4=CC(=O)CC[C@@H]43)[C@@H]1CC[C@@H]2OC(=O)CCc1ccccc1", "outcome": "inactive"}
{"Compound": "S=C(NC1CCCCC1)N1CCC(c2cnc[nH]2)CC1", "outcome": "inactive"}
{"Compound": "c1cc2ccc3cccc4ccc(c1)c2c34", "outcome": "inactive"}
{"Compound": "CC(Cc1ccc(O)cc1)NCC(O)c1cc(O)cc(O)c1 (stereo not given)", "outcome": "inactive"}

// below: outcome requested for another compound
Tell us which outcome value is on record for Cc1c(C(=O)c2cccc3ccccc23)c2cccc3c2n1[C@H](CN1CCOCC1)CO3
inactive

----------
# Assay comment: qHTS for Inhibitors of the Functional Ribonucleoprotein Complex (vRNP) of Lassa (LASV) Arenavirus: Viability assay - alamar blue signal for LASV Primary Screen (AID 1347083); further: nearly all actives have a fitted effect of over 80% in size
# Test parameters: cell viability, alamar blue fluorescence (LASV minigenome counter-screen); series mostly up to 57.5 µM
Records with an inconclusive call do not appear. Activity calls are given as the source filed them. The call rests on the fitted dose curve; tested in HEK293 reporter line.
Hi! Could you answer with just one of these? 1 for active, 0 for inactive

# example entries with known answers
{"Molecule": "O=C(NC1CCNCC1)c1[nH]ncc1NC(=O)c1c(Cl)cccc1Cl", "Class name": 1}
{"Molecule": "Cc1cccc(-c2nn(C(=S)Nc3ccccc3)cc2-c2ccnc3ccccc23)n1", "Class name": 0}
{"Molecule": "CC(=O)NC(C)c1ccc(Oc2ccc(OC(C)C)cc2)cc1 (stereo not given)", "Class name": 0}
{"Molecule": "CCC(=O)O[C@@H]1C=C2CCC3C(CCC4(C)C3CC[C@@H]4OC(=O)CC)C2CC1 (stereo not given in full)", "Class name": 0}
{"Molecule": "O=C(O)Cc1ccccc1Oc1ccc(Cl)cc1Cl", "Class name": 0}
{"Molecule": "CC(C)OC(=O)c1cc(C(=O)OC(C)C)cc([N+](=O)[O-])c1", "Class name": 0}
{"Molecule": "CCOC(=O)c1cncn1[C@H](C)c1ccccc1", "Class name": 0}
{"Molecule": "NC(=O)c1ccc(N(C(N)=O)c2c(F)cccc2F)nc1-c1ccc(F)cc1F", "Class name": 1}

What was the test verdict on O=C(Oc1ccc([N+](=O)[O-])cc1)N1CCC(C(O)(c2ccc3c(c2)OCO3)c2ccc3c(c2)OCO3)CC1 ?
1

Please state the recorded outcome for this molecule: CC[C@H](CO)Nc1nc(NCc2ccccc2)c2ncn(C(C)C)c2n1
1

----------
# Assay comment: Cell Viability - LYMP1-002 - Assay at 24 hr (AID 993)
# Test parameters: LYMP1-002 lymphoblastoid cells viability; series mostly up to 92.2 µM
Active and inactive are the calls of the source. Calls follow the shape of the dose curve; as a rule, active = well fitted cell-killing curve with a large enough effect; inconclusive = small, poorly fitted or top-dose-only effect; inactive = flat fitted curve, though single readings scatter.
Your reply should match one of these outcome classes. T (active), F (inactive)

{"Molecule": "CN(C)[C@@H]1C(=O)C(C(N)=O)=C(O)[C@@]2(O)C(=O)C3=C(O)c4c(O)cccc4[C@@](C)(O)[C@H]3[C@H](O)[C@@H]12", "Class name": "F"}
{"Molecule": "CC(=O)[O][Hg][c]1ccccc1", "Class name": "T"}
{"Molecule": "Nc1ccc(Sc2ccc(N)cc2)cc1", "Class name": "F"}
{"Molecule": "CCOCCOC(C)=O", "Class name": "F"}
{"Molecule": "c1cc2ccc3cccc4ccc(c1)c2c34", "Class name": "F"}

Could you please tell me the result logged for Nc1ccc(Cl)cc1N in this assay?
F

// param item: O=S(=O)(c1ccc(Cl)cc1)c1ccc(Cl)cc1 ; yields the recorded call
F

Hi team, can someone confirm the assay call for COc1ccc(C(c2ccc(OC)cc2)C(Cl)(Cl)Cl)cc1 ?
F

Which outcome did this test record for the molecule COC(C)(C)CCCC(C)C/C=C/C(C)=C/C(=O)OC(C)C (stereo not drawn) ?
F

How was CCCCC(CC)COC(=O)c1ccccc1C(=O)OCC(CC)CCCC (stereo not drawn) classified in this test?
F

// return assay outcome for Nc1ccc([N+](=O)[O-])cc1
F

For this molecule, state the assay outcome: CN(C)NC(=O)CCC(=O)O
F

Which result was noted for this molecule in the test: OCCCBr
F

----------
# Assay comment: Quantitative High-Throughput drug screen in 47 multiple myeloma cell lines against the NCATS MIPE library collection: KMS28PE_JCRB cell viability assay (AID 1918983); further: nearly all actives have a fitted effect of over 35% in size
# Test parameters: KMS28PE multiple myeloma viability, CellTiter-Glo ATP, 48 h; series mostly up to 45.8 µM
Records with an inconclusive call do not appear. The source made the active and inactive calls. Calls come from the whole dose curve; as a rule, active = well fitted cell-killing curve with a large enough effect; inconclusive = small, poorly fitted or top-dose-only effect, or effect the other way; inactive = no such curve, though single readings can be large or run the other way.
Form entry, call: pick from 1.0 for active, 0.0 for inactive

{"Compound": "COc1cc2cc(c1Cl)N(C)C(=O)C[C@H](OC(=O)C(C)C)[C@]1(C)O[C@H]1[C@H](C)[C@@H]1C[C@@](O)(NC(=O)O1)[C@H](OC)C=CC=C(C)C2", "Class name": 0.0}
{"Compound": "CCCC[N+]1(C)[C@H]2CC(OC(=O)[C@H](CO)c3ccccc3)C[C@H]1[C@H]1O[C@H]12 (stereo partly drawn)", "Class name": 0.0}
{"Compound": "CC(C)(C)c1cc(C=C(C#N)C#N)cc(Br)c1O", "Class name": 1.0}
{"Compound": "C=C[C@@H]1CN2CCC1C[C@@H]2[C@@H](O)c1ccnc2ccccc12 (stereo partly drawn)", "Class name": 1.0}
{"Compound": "C#C[C@]1(O)C=C[C@@H]2[C@@H]3CCC4=CC(=O)CC[C@@H]4[C@H]3CC[C@@]21CC", "Class name": 0.0}
{"Compound": "COc1ccc(CC2NCCc3cc(OC)c(OC)cc32)cc1OC (stereo not drawn)", "Class name": 0.0}
{"Compound": "CO[C@H]1CCC(O[C@H]2C[C@H]([C@]3(C)CC[C@]4(C[C@H](O)[C@@H](C)[C@@H]([C@@H](C)C=C(C)C(=O)[C@H](C)C[C@H](C)C(=O)O)O4)O3)O[C@]3(O[C@@H]([C@H]4O[C@@](O)(CO)[C@H](C)C[C@H]4C)C[C@H]3C)[C@H]2C)O[C@H]1C (stereo partly drawn)", "Class name": 1.0}

Returns: the outcome recorded for CCN1CCN(C(=O)Cc2ccc(Nc3ncc(F)c(Nc4ccc(C(=O)Nc5ccccc5Cl)cc4)n3)cc2)CC1 in this assay.
1.0

The origin of these recorded values is PubChem BioAssay (NCATS).
